Biological target: GABARAP, O95166
Sequence (O95166 whole entry, the tested form may be a part): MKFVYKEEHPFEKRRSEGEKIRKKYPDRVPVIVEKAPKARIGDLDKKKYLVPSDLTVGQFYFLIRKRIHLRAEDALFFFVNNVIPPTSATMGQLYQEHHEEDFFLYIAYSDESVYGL
Test: median log2 fold change of GCK-ALFA target abundance (FLAG IP / Myc IP barcode read proportion) (log2 ratio); each designed protein is fused to an ALFA-tag nanobody in HEK293 cells to bring the named protein to FLAG-tagged glucokinase (GCK); Myc marks an untargeted standard; higher = target protein stabilised (more abundant)
Conditions: target protein: 3xFLAG-MCP-GCK-ALFA reporter; HEK293 landing pad (RPLP)
The full ranking holds about 4,500 sequences; the median of “median log2 fold change of GCK-ALFA target abundance (FLAG IP / Myc IP barcode read proportion)” is about 0.078, and the lowest 2% start at about -0.6. This excerpt belongs to a sample that is enriched for the lowest values.
Value Type: median log2 fold change
Keep the answer to the number alone.

- GBRAP_52_6157 (protein) MEARAEAYANALIAAVKAGDEAAIRALMEEIAATLSEEEIELMMAIVAEKVAGLTPEEQERAVEAALELEDILIAAGHDENIASYNTARVAGAAYDALQA: -0.262
- GBRAP_35_5567 (protein) SFDETTAEMMVNTIEALTEAVEDIDPETLKTITEQITKAAKKVIEEIKDNKEALEKIKKALEKLLKALEKRGLDDPNVKAAAEAVKEAIKEAEKAIKEAE: 0.378
- GBRAP_160_4544 (protein) KEKVEEAIKDIDERAAFVKSLVGKVSTEELINFFDVEVGSFIMELEELGLLTDELGEEIDKIADETKATLKANPNASDEEKKALIDEAAEKIKEAILKHS: 0.0163

Field: next binder
Prompt: Form field: reported median log2 fold change of GBRAP_137_3630 (protein) ATVEIEVEEYEDVVEITVTLKDAAKAEAVKELVLDVAHEHGALAVSVEVEEDGTLVVTVWVPREKAEAFLEALVRRLQTELGLRVRVRNLDTGEEEEFEP
Response: -0.302

Origin of the recorded values: the supplement of paper PMC12632987
